Below, each of the compounds is paired with its reported IC50 value.
Tested on: cancer cell lines
Assay: Cancer cell proliferation activity of representative nucleosides, CellTiterGlo 72 h (Example 7, Tables 8 and 9)
Type: cell-based
Conditions: Homo sapiens, MCF7, 72 h, MCF7, breast, 72 h
Description: Dose response relationships on cell proliferation was assessed for representative nucleosides on cancer cell lines. […] After incubation for 72 h at 37° C. at 5% or 10% CO2 dependent on the medium, cell plates were equilibrated to room temperature for one hour, CellTiterGlo reagent (Promega) was added and luminescence was measured approximately an hour later using a luminometer. […]
Return type: number; implicit unit µM.

Here's what some known entries look like.
{"columns": ["Substance Smiles", "IC50 / µM"],
 "data": [
  ["C#C[C@]1(CO)O[C@@H](n2cnc3c(=O)[nH]c(N)nc32)C[C@@H]1O", 5.95],
  ["CC[C@]1(CO)O[C@@H](n2cnc3c(N)nc(N)nc32)C[C@@H]1O", 5.68],
  ["C#C[C@]1(CO)O[C@@H](n2cc(F)c(N)nc2=O)C[C@@H]1O", 1.19]
]}

[in] Which IC50 is listed for C[C@]1(CO)O[C@@H](n2ccc(N)nc2=O)C[C@@H]1O ?
[out] 1.96

* * *

Tested on: NCI-H1563
Assay: Cell proliferation CellTiterGlo Ex.2
Assay type: cell-based
Settings: Homo sapiens; NCI-H1563 (Lung), 72 h
Measured Property: IC50

[in] Which IC50 is listed for C#C[C@]1(CO)O[C@@H](n2cnc3c(=O)[nH]c(N)nc32)C[C@@H]1O ?
[out] > 10 µM

* * *

System: K-562
Experiment: Cell proliferation Ex.3
Format: cell-based
Settings: Homo sapiens, K562; K-562, 120 h
pIC50: −log10 of the molar value.
Measured Property: pIC50

[in] Which pIC50 is listed for C#C[C@]1(CO)O[C@@H](n2cc(F)c(N)nc2=O)C[C@@H]1O ?
[out] < 5.00

* * *

Below, each of the compounds is paired with its reported IC50 value.
System: cancer cell lines
Test: Cancer cell proliferation activity of representative nucleosides, CellTiterGlo 72 h (Example 7, Tables 8 and 9)
Assay type: cell-based
Details: Homo sapiens, SK-LMS-1, 72 h, SKLMS1, 72 h (Table 9)

Here's what some known entries look like.
{"columns": ["Compound", "Subject Of Test", "IC50"],
 "data": [
  ["Cc1cn([C@H]2C[C@H](O)[C@@](C#N)(CO)O2)c(=O)[nH]c1=O", "cancer cell lines", "2.88 µM"],
  ["C#C[C@]1(CO)O[C@@H](n2cnc3c(N)nc(F)nc32)C[C@@H]1O [Islatravir (EFdA), Islatravir, reference compound]", "cancer cell lines", "3.35 µM"],
  ["Nc1ccn([C@H]2C[C@H](O)[C@](CO)(CF)O2)c(=O)n1", "cancer cell lines", "0.86 µM"]
]}

Please examine the following record next.
[in] Which IC50 is listed for Nc1nc(=O)n([C@@H]2C=C[C@H](CO)O2)cc1F [Elvucitabine, reference compound] ?
[out] > 50 µM

* * *

System: C33A
Assay: Cell proliferation Ex.3
Type: cell-based
Conditions: Homo sapiens, C-33-A, 168 h
Measured Property: pIC50
Please report pIC50 as the negative decimal logarithm of the molar concentration, giving only the number.

[in] Which pIC50 is listed for C#C[C@]1(CO)O[C@@H](n2cc(F)c(N)nc2=O)C[C@@H]1O [compound 9] ?
[out] 5.51

* * *

System: cancer cell lines
Assay: Cancer cell proliferation activity of representative nucleosides, CellTiterGlo 72 h (Example 7, Tables 8 and 9)
Type: cell-based
Conditions: Homo sapiens, Granta-519, 72 h, GRANTA-519, hematological, 72 h
Below, each of the compounds is paired with its reported pIC50 value.
Please report pIC50 as the negative decimal logarithm of the molar concentration, giving only the number.

Here's what some known entries look like.
{"columns": ["Substance Smiles", "pIC50"],
 "data": [
  ["C#C[C@]1(CO)O[C@@H](n2cc(F)c(N)nc2=O)C[C@@H]1O", 5.49],
  ["C#C[C@]1(CO)O[C@@H](n2ccc(N)nc2=O)C[C@@H]1O", 6.48]
]}

[in] Which pIC50 is listed for CC[C@]1(CO)O[C@@H](n2cnc3c(N)nc(N)nc32)C[C@@H]1O ?
[out] 6.05

* * *

Below, each of the compounds is paired with its reported IC50 value.
Test system: cancer cell lines
Assay: Cancer cell proliferation activity of representative nucleosides, CellTiterGlo 72 h (Example 7, Tables 8 and 9)
Type: cell-based
Settings: Homo sapiens, UMUC3, 72 h, UMUC3, 72 h (Table 9)
Return type: number; implicit unit µM.

{"columns": ["Compound", "Measured Property", "U", "Readout Value"],
 "data": [
  ["C#C[C@]1(CO)O[C@@H](n2cnc3c(N)nc(F)nc32)C[C@@H]1O [Islatravir (EFdA), Islatravir, reference compound]", "IC50", "µM", 3.53]
]}

[in] Which IC50 is listed for Nc1ccn([C@H]2C[C@H](O)[C@](CO)(CF)O2)c(=O)n1 ?
[out] 1.21

* * *

System: cancer cell lines
Test: Cancer cell proliferation activity of representative nucleosides, CellTiterGlo 72 h (Example 7, Tables 8 and 9)
Assay type: cell-based
Conditions: Homo sapiens, WSU-NHL, 72 h, hematological
Below, each of the compounds is paired with its reported pIC50 value.
Please report pIC50 as the negative decimal logarithm of the molar concentration, giving only the number.

Here's what some known entries look like.
{"columns": ["Substance Smiles", "Readout Value"],
 "data": [
  ["CC[C@]1(CO)O[C@@H](n2ccc(N)nc2=O)C[C@@H]1O", 5.55],
  ["C#C[C@]1(CO)O[C@@H](n2cc(F)c(N)nc2=O)C[C@@H]1O", 5.45],
  ["N#C[C@]1(CO)O[C@@H](n2ccc(N)nc2=O)C[C@@H]1O", 6.66]
]}

[in] Which pIC50 is listed for CC[C@]1(CO)O[C@@H](n2cnc3c(N)nc(N)nc32)C[C@@H]1O ?
[out] 5.59

* * *

System: LN229
Test: Cell proliferation CellTiterGlo Ex.2
Type: cell-based
Settings: Homo sapiens, LN-229; LN229 (Brain), 72 h
Measured Property: pIC50
Please report pIC50 as the negative decimal logarithm of the molar concentration, giving only the number.

[in] Which pIC50 is listed for C#C[C@]1(CO)O[C@@H](n2cnc3c(=O)[nH]c(N)nc32)C[C@@H]1O ?
[out] 5.65

* * *

Tested on: cancer cell lines
Experiment: Cancer cell proliferation activity of representative nucleosides, CellTiterGlo 72 h (Example 7, Tables 8 and 9)
Assay type: cell-based
Settings: Homo sapiens, MV4-11, 72 h, MV4-11, hematological, 72 h
Description: Dose response relationships on cell proliferation was assessed for representative nucleosides on cancer cell lines. […] After incubation for 72 h at 37° C. at 5% or 10% CO2 dependent on the medium, cell plates were equilibrated to room temperature for one hour, CellTiterGlo reagent (Promega) was added and luminescence was measured approximately an hour later using a luminometer. […]
Measured Property: IC50 (nM)
Return type: number; implicit unit nM.

{"columns": ["Molecule", "Subject Of Test", "Measured Property", "U", "Readout Value"],
 "data": [
  ["C[C@]1(CO)O[C@@H](n2ccc(N)nc2=O)C[C@@H]1O [compound 30]", "cancer cell lines", "IC50", "nM", 570],
  ["N#C[C@]1(CO)O[C@@H](n2ccc(N)nc2=O)C[C@@H]1O [compound 29]", "cancer cell lines", "IC50", "nM", 600]
]}

Please examine the following record next.
[in] Which IC50 is listed for CC[C@]1(CO)O[C@@H](n2cnc3c(N)nc(N)nc32)C[C@@H]1O [compound 25] ?
[out] 2250

* * *

Below, each of the compounds is paired with its reported IC50 value.
System: cancer cell lines
Experiment: Cancer cell proliferation activity of representative nucleosides, CellTiterGlo 72 h (Example 7, Tables 8 and 9)
Assay type: cell-based
Conditions: Homo sapiens, HeLa, 72 h, 72 h (Table 9)
Return type: number; implicit unit nM.

{"columns": ["Compound", "U", "IC50"],
 "data": [
  ["Nc1ccn([C@H]2C[C@H](O)[C@](CO)(CF)O2)c(=O)n1", "nM", 1000]
]}

Please examine the following record next.
[in] Which IC50 is listed for C#C[C@]1(CO)O[C@@H](n2cnc3c(N)nc(F)nc32)C[C@@H]1O [Islatravir (EFdA), Islatravir, reference compound] ?
[out] 2980

* * *

Test system: SW620
Assay: Cell proliferation CellTiterGlo Ex.2
Format: cell-based
Details: Homo sapiens, SW-620; SW620 (Colon), 72 h
Measured Property: pIC50
Please report pIC50 as the negative decimal logarithm of the molar concentration, giving only the number.

[in] Which pIC50 is listed for C#C[C@]1(CO)O[C@@H](n2cnc3c(=O)[nH]c(N)nc32)C[C@@H]1O ?
[out] 5.14
